B1: ZMYND11 (parent)
chain: YCSIKCQQEHWHAEHKRTCRRKR

Variants of: B1
Assay: protein stability index of a GFP-peptide fusion (GPS, HEK-293T) (PSI 1-6); higher = more stable;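 further: lentivirally expressed fusions sorted by FACS into six bins by GFP to DsRed ratio, PSI derived from sequencing read proportions per bin multiplied by bin number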
Details: c terminus: native
measured endpoint: protein stability index
Please give only the number in your answer, with no unit.

Field: example entries. Status: answers known.
>  <sequence text>
YCSIKCQQEHWHIEHKRTCRRKR

>  <measured endpoint>
protein stability index

>  <measured result>
2.58

$$$$
>  <sequence text>
YCSIKCQQEHWHAEHKRTCRRAR

>  <measured endpoint>
protein stability index

>  <measured result>
1.83

$$$$
>  <sequence text>
YCSIKCQQEHWHAEHKRTCRIKR

>  <measured endpoint>
protein stability index

>  <measured result>
2.99

$$$$
>  <sequence text>
YCPIKCQQEHWHAEHKRTCRRKR

>  <measured endpoint>
protein stability index

>  <measured result>
2.17

$$$$
>  <sequence text>
YCSIKCQQEHWHAEHKRTCRRKG

>  <measured endpoint>
protein stability index

>  <measured result>
5.07

$$$$
>  <sequence text>
YCSIKCQQEHWHAEHERTCRRKR

>  <measured endpoint>
protein stability index

>  <measured result>
2.46

$$$$

protein stability index for YCSIKCQQEHWHAEHKRTCRDKR is 1.96

The recorded protein stability index for YCSIKCQQKHWHAEHKRTCRRKR is 2.17

protein stability index reported for this variant YCSIKCQVEHWHAEHKRTCRRKR : 1.78

Measured protein stability index, YCSIKCQQETWHAEHKRTCRRKR : 2.07

protein stability index measured on YCSIKCQQEHWHAEHKRTCTRKR = 3.02

GET /value?item= YCSIKCQQEHWHAEHKRTCRRKW &field=protein stability index returns 4.23

Query YCSIKCQQEHWHAEHKRTCRRKC yields protein stability index of 2.04

Record YCSIKCQQEHWHAEHKRRCRRKR , field protein stability index: 2.29
